Would you kindly list T cell responses for each of these substances?
Tested on: T cells (lymph node cells/splenocytes from immunized animals)
method-notes: T cell proliferation assay ([3H]-thymidine)
Type: cell-based, A/J mice
applied-conditions: 10 μg/ml; animals immunized with pool VI; fold vs medium control

Input β1AR 281-300: 20-mer of mouse β1AR peptide library (PGPPRPADSLANGRSSKRRP; UniProt P34971 281-300, looked up, fragment) . Output T cell responses: 0.92 fold

Input β1AR 311-330: 20-mer of mouse β1AR peptide library (ALKTLGIIMGVFTLCWLPFF; UniProt P34971 311-330, looked up, fragment) . Output T cell responses: 1.30 fold

Input β1AR 291-310: 20-mer of mouse β1AR peptide library (ANGRSSKRRPSRLVALREQK; UniProt P34971 291-310, looked up, fragment) . Output T cell responses: 0.87 fold
